# System: TO-N3-2 (biotin conjugate)
# METHOD_DESCRIPTION: pull-down binding Z-score (relative to library population); higher = stronger binding
# CONDITIONS: RNA library: Library-2
Entries annotated with measured pull-down binding Z-score
Kindly provide the number alone.

Recorded results for 3 sequences are shown here.
QUERY_SEQUENCE | SYSTEM_TESTED | pull-down binding Z-score
AACGUUAUGUGUGGUCUUUAACCUGUU [hsa-mir-6755] | TO-N3-2 (biotin conjugate) | -0.171
CCUUCACACUCAAAGGCGGUGCACCAACAAAGGUUACUUUUGGUGAUGACACUGUGAUAGAAGUGCAAGG [SHAPE_invitro_SARS-CoV-2_Motif_51] | TO-N3-2 (biotin conjugate) | -0.0884
UAAACACGCUUGUUAAACAACUUAGCUCCAAUUUUGGUGCAAUUUCAAGUGUUUUA [SHAPE_invitro_SARS-CoV-2_Motif_443] | TO-N3-2 (biotin conjugate) | -0.333

Turning now to a further sequence:
So what's the measured pull-down binding Z-score for this one? CCCACUCCAAAGUUCACAGAAUGGGUGG [hsa-mir-541]
1.15

---

Entries annotated with measured pull-down binding Z-score
# Tested on: TO-3-N3 (biotin conjugate)
# METHOD_DESCRIPTION: pull-down binding Z-score (relative to library population); higher = stronger binding
# CONDITIONS: RNA library: Library-2
Kindly provide the number alone.

QUERY_SEQUENCE | pull-down binding Z-score
UAGGUUGUUAUUUAAUCCAACU [hsa-mir-190a] | -0.24
GUAAGAGAAUUCCUUAC | -0.366
GAUGGCACUUGUGGCUUAGUAGAAGUUGAAAAAGGCGUUUUGCCUCAACUUGAACAGCCCUAUGUGUUCAUC | -0.665

Recorded pull-down binding Z-score for CACGCAUUUGCUUUACUUGCAAUGAUUAUA [hsa-mir-300] with TO-3-N3 (biotin conjugate), please?
0.485

Same question, CUUAAGUGGUUCGGGUAAAUCACUUUAA [hsa-mir-3977] this time
-0.623

Same question, `GUCUCUGAAGAAGUAGUGGAAAAUCCUACCAUACAGAAAGAC` this time
-0.0809

Same question, GAGGUUGCAGUGAGCCAAGAUCGUG [hsa-mir-4459] this time
-0.147

Same question, `AUUUGAACUCUACUAAUGUCACUAUUGCAACCUACUGUACUGGUUCUAUACCUUGUAGUGUUUGUCUUAGUGGUUUAGAU` this time
-0.873

Same question, GGCAUCCCCAUUGCU [hsa-mir-4304] this time
0.527

Same question, GAUCUAAAACCAGUC [DMSMaPseq_invitro_SARS-CoV-2_Motif_121] this time
-0.0402

Same question, UGCCUCUCGGGGU [hsa-mir-6073] this time
0.000863

Same question, CUUGAUUUAAUGUCUAUACAAUUAAG [hsa-mir-124-3] this time
-0.0185

---

# System: TO-3-N3 (biotin conjugate)
# METHOD_DESCRIPTION: pull-down binding Z-score (relative to library population); higher = stronger binding
# CONDITIONS: RNA library: Library-2
Decide using pull-down binding Z-score: a value greater than or equal to -0.5 is fulfilled, a smaller one is not fulfilled.

Solved cases below.
QUERY_SEQUENCE | LABEL_CLASS
GAUUCGCUUUACUUAUGACGAAUC [hsa-mir-382] | fulfilled
UGCUUUACUUUUAAUGGCA [hsa-mir-548k] | not fulfilled
UAAUAUGCACUAUAAAUAUAUUG [hsa-mir-450a-1] | not fulfilled
UAAAGAACUUUAAGUCAGUUCUUUA | not fulfilled
GCUGGUGCACUUGCCAGU [IAV_invivo_M1_M2_7_Motif_8+IAV_invivo_M1_M2_7_Motif_8] | not fulfilled

Say whether `GCUUCCACAAGUGCUUUUGUGGAAACUGUGAAAGGUUUGGAUUAUAAAGCAUUCAAACAAAUUGUUGAAUCCUGUGGUAAUUUUAAAGUUACAAAAGGAAAAGC` shows pull-down binding Z-score of -0.5 or more.
fulfilled
